Exercise: for every item that follows, state its recorded Emax.
# Assayed system: Cannabinoid receptor 1 (Homo sapiens, UniProt P21554)
# Sequence (P21554 whole entry): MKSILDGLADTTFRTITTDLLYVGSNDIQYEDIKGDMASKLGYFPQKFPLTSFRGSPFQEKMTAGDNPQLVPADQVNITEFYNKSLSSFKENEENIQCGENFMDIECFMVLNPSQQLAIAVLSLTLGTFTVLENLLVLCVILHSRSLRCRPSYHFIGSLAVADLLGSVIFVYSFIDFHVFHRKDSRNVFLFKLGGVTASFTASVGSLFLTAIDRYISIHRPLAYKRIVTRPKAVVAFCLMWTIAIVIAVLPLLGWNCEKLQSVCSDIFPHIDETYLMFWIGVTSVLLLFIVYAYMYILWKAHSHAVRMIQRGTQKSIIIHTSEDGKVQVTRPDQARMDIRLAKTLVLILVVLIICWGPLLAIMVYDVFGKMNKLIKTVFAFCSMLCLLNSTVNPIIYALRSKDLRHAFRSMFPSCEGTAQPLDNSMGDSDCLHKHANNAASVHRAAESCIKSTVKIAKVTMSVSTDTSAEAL
# Assay comment: […] human CB1 receptor in CHO cells incubated for 15 mins by plate reader analysis relative to control
# Type: cell-based
Give bare numbers, in %.

CCCCCOc1ccccc1C(=O)NC12CC3CC(CC(C3)C1)C2 ... 100
O=C(NC12CC3CC(CC(C3)C1)C2)c1ccccc1OCC1CCCCC1 ... 75
CCCCCCC(C)(C)c1ccc([C@H]2C[C@@H](O)CC[C@@H]2CCCO)c(O)c1 ... 100

Shifting focus to the compound that follows.
Would you kindly share the measured Emax for O=C(NC12CC3CC(CC(C3)C1)C2)c1ccccc1OCc1ccccc1 ?
100

###

# Assayed system: Cannabinoid receptor 1 (Homo sapiens, UniProt P21554)
# Assay comment: Agonist activity at human CB1 receptor in CHO cells incubated for 15 mins by plate reader analysis
Assay readout: EC50 (nM)
Give bare numbers, in nM.

Illustrative cases are given below, each with its answer.
CCCCCOc1ccccc1C(=O)NC12CC3CC(CC(C3)C1)C2 ... 106
O=C(NC12CC3CC(CC(C3)C1)C2)c1ccccc1OCc1ccccc1 ... 489

Shifting focus to the compound that follows.
What measured EC50 is associated with O=C(NC12CC3CC(CC(C3)C1)C2)c1ccccc1OCC1CCCCC1 on Cannabinoid receptor 1 (Homo sapiens, UniProt P21554)?
253

###

# Assayed system: Cannabinoid receptor 2 (Homo sapiens)
# Sequence (P34972 whole entry): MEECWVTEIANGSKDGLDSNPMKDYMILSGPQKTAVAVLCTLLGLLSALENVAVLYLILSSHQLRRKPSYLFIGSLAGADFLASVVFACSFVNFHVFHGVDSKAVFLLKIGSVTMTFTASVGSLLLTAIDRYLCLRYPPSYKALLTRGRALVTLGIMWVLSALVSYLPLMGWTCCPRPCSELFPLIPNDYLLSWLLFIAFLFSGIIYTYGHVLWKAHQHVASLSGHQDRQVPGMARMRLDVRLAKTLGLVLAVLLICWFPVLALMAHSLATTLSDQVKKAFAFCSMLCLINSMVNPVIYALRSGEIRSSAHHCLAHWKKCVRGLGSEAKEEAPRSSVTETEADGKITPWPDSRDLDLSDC
# Assay comment: Displacement of [3H]CP55940 from recombinant human CB2 receptor expressed in HEK293 cell membrane incubated for 90 mins by beta scintillation counter method
Assay readout: pKi
Numbers only, as −log10 of the molar value.

Illustrative cases are given below, each with its answer.
O=C(NC12CC3CC(CC(C3)C1)C2)c1ccc(O)cc1 ... 5.97
COc1ccccc1C(=O)NC12CC3CC(CC(C3)C1)C2 ... 6.41
COc1cccc(C(=O)NC23CC4CC(CC(C4)C2)C3)c1O ... 6.82
COc1cc(Br)cc(C(=O)NC23CC4CC(CC(C4)C2)C3)c1OCc1ccccc1 ... 5.49
CCCCCOc1ccccc1C(=O)NC12CC3CC(CC(C3)C1)C2 ... 7.97
O=C(NC12CC3CC(CC(C3)C1)C2)c1cccc(OCc2ccccc2)c1 ... 6.50
COc1cc(Br)cc(C(=O)NC23CC4CC(CC(C4)C2)C3)c1OC ... 6.86
O=C(NC12CC3CC(CC(C3)C1)C2)c1ccc(OCc2ccccc2)cc1 ... 5.41

Give measured pKi for every item shown.
1. COc1cccc(C(=O)NC23CC4CC(CC(C4)C2)C3)c1OC
2. COc1ccc(C(=O)NC23CC4CC(CC(C4)C2)C3)cc1OC
3. COc1cccc(C(=O)NC23CC4CC(CC(C4)C2)C3)c1

[7.06, 5.52, 6.29]

###

# System: THP-1
# Assay comment: Antiinflammatory activity in human THP-1 macrophages assessed as decrease in IL-6 level incubated for 24 hrs by ELISA based qRT-PCR analysis
# Assay type: functional, cell-based
The source made the active and inactive calls. The rule behind the calls is not given here.
Returns: one label drawn from Y (active), N (inactive)

Some entries whose results are on file:
O=C(NC12CC3CC(CC(C3)C1)C2)c1ccccc1OCc1ccccc1 ... N
CCCCCOc1ccccc1C(=O)NC12CC3CC(CC(C3)C1)C2 ... Y
O=C(NC12CC3CC(CC(C3)C1)C2)c1ccccc1OCC1CCCCC1 ... Y

Each compound tested received a call. Report the one for O=C(NC1CCCCC1)c1cn(CCN2CCOCC2)c2cc(Cl)ccc2c1=O .
N
